assay: In vitro metabolic stability in rat plasma; type: in vitro ADME; conditions: rat, plasma, 37° C., 10 μM compound, read-out: Rat plasma T1/2
readout.label: half-life at 10 µM (min)
Supply the numeric figure in min, leaving out any unit text.

Recorded half-life at 10 µM, per entry:
| compound | unit.string | value.observed |
| --- | --- | --- |
| CC[C@@H]([C@H](C)OC(=O)OC(C)OC(=O)CNC)n1ncn(-c2ccc(N3CCN(c4ccc(OC[C@@H]5CO[C@@](Cn6cncn6)(c6ccc(F)cc6F)C5)cc4)CC3)cc2)c1=O.Cl (stereo partly drawn) | min | 21.2 |
| CC[C@@H]([C@H](C)OC(=O)OC(C)OC(=O)CCCCCCCOS(=O)(=O)[O-])n1ncn(-c2ccc(N3CCN(c4ccc(OC[C@@H]5CO[C@@](Cn6cncn6)(c6ccc(F)cc6F)C5)cc4)CC3)cc2)c1=O.[Na+] (stereo partly drawn) | min | 9.36 |

Look up half-life at 10 µM for this compound: CC[C@@H]([C@H](C)O)n1ncn(-c2ccc(N3CCN(c4ccc(OC[C@@H]5CO[C@@](Cn6c[n+](C(C)OC(=O)N(C)c7ncccc7COC(=O)[C@@H](N)CCCCN)cn6)(c6ccc(F)cc6F)C5)cc4)CC3)cc2)c1=O (stereo partly drawn)
2.51

Look up half-life at 10 µM for this compound: CC[C@@H](C(C)OC(=O)OCOC(=O)CCCCCCOP(=O)([O-])[O-])n1ncn(-c2ccc(N3CCN(c4ccc(OC[C@@H]5CO[C@@](Cn6cncn6)(c6ccc(F)cc6F)C5)cc4)CC3)cc2)c1=O.[Na+].[Na+] (stereo partly drawn)
1.26

Look up half-life at 10 µM for this compound: CC[C@@H]([C@H](C)O)n1ncn(-c2ccc(N3CCN(c4ccc(OC[C@@H]5CO[C@@](Cn6c[n+](C(C)OC(=O)N(C)c7ncccc7COC(=O)[C@@H](N)CCC(N)=O)cn6)(c6ccc(F)cc6F)C5)cc4)CC3)cc2)c1=O (stereo partly drawn)
1.12

Look up half-life at 10 µM for this compound: CC[C@@H]([C@H](C)OC(=O)OC(C)OC(=O)Cc1ccc(OS(=O)(=O)[O-])cc1)n1ncn(-c2ccc(N3CCN(c4ccc(OC[C@@H]5CO[C@@](Cn6cncn6)(c6ccc(F)cc6F)C5)cc4)CC3)cc2)c1=O.[Na+] (stereo partly drawn)
13.3

Look up half-life at 10 µM for this compound: CC[C@@H]([C@H](C)O)n1ncn(-c2ccc(N3CCN(c4ccc(OC[C@@H]5CO[C@@](Cn6c[n+](C(C)OC(=O)N(C)c7ncccc7COC(=O)[C@@H](N)[C@@H](C)O)cn6)(c6ccc(F)cc6F)C5)cc4)CC3)cc2)c1=O (stereo partly drawn)
2.69

Look up half-life at 10 µM for this compound: CC[C@@H](C(C)OC(=O)OC(C)OC(=O)CCCOS(=O)(=O)[O-])n1ncn(-c2ccc(N3CCN(c4ccc(OC[C@@H]5CO[C@@](Cn6cncn6)(c6ccc(F)cc6F)C5)cc4)CC3)cc2)c1=O.[Na+] (stereo partly drawn)
1.55

Look up half-life at 10 µM for this compound: CC[C@@H]([C@H](C)O)n1ncn(-c2ccc(N3CCN(c4ccc(OC[C@@H]5CO[C@@](Cn6c[n+](C(C)OC(=O)N(C)c7ncccc7COC(=O)[C@@H](N)CO)cn6)(c6ccc(F)cc6F)C5)cc4)CC3)cc2)c1=O (stereo partly drawn)
1.22

* * *

assay: Solid stability test (stability chamber, HPLC total impurity); format: physicochemical
Overview of reported Total impurity increment in 30 days across a group of compounds:
Supply the numeric figure in %, leaving out any unit text.

Recorded Total impurity increment in 30 days, per entry:
| compound | readout.label | value.observed |
| --- | --- | --- |
| CC[C@@H]([C@H](C)O)n1ncn(-c2ccc(N3CCN(c4ccc(OC[C@@H]5CO[C@@](Cn6c[n+](C(C)OC(=O)N(C)c7ncccc7COC(=O)[C@@H](N)CO)cn6)(c6ccc(F)cc6F)C5)cc4)CC3)cc2)c1=O (stereo partly shown) [ST0025] | Total impurity increment in 30 days | 0.55 |
| CC[C@@H]([C@H](C)O)n1ncn(-c2ccc(N3CCN(c4ccc(OC[C@@H]5CO[C@@](Cn6c[n+](C(C)OC(=O)N(C)c7ncccc7COC(=O)CN(C)C)cn6)(c6ccc(F)cc6F)C5)cc4)CC3)cc2)c1=O (stereo partly shown) [ST0045] | Total impurity increment in 30 days | 1.68 |
| CC[C@@H]([C@H](C)O)n1ncn(-c2ccc(N3CCN(c4ccc(OC[C@@H]5CO[C@@](Cn6c[n+](C(C)OC(=O)NC7O[C@H](CO)[C@H](O)[C@H]7OC(=O)CNC)cn6)(c6ccc(F)cc6F)C5)cc4)CC3)cc2)c1=O (stereo partly shown) [ST0028] | Total impurity increment in 30 days | 1.62 |
| CC[C@@H]([C@H](C)O)n1ncn(-c2ccc(N3CCN(c4ccc(OC[C@@H]5CO[C@@](Cn6c[n+](C(C)OC(=O)N(C)c7ncccc7COC(=O)CN)cn6)(c6ccc(F)cc6F)C5)cc4)CC3)cc2)c1=O (stereo partly shown) [ST0002] | Total impurity increment in 30 days | 0.63 |
| CC[C@@H]([C@H](C)O)n1ncn(-c2ccc(N3CCN(c4ccc(OC[C@@H]5CO[C@@](Cn6c[n+](C(C)OC(=O)N(C)c7ncccc7COC(=O)[C@@H](N)CC(N)=O)cn6)(c6ccc(F)cc6F)C5)cc4)CC3)cc2)c1=O (stereo partly shown) [ST0023] | Total impurity increment in 30 days | 0.42 |
| CC[C@@H]([C@H](C)O)n1ncn(-c2ccc(N3CCN(c4ccc(OC[C@@H]5CO[C@@](Cn6c[n+](C(C)OC(=O)N(C)c7ncccc7COC(=O)[C@@H](N)CCCCN)cn6)(c6ccc(F)cc6F)C5)cc4)CC3)cc2)c1=O (stereo partly shown) [ST0024] | Total impurity increment in 30 days | 0.62 |
| CC[C@@H]([C@H](C)O)n1ncn(-c2ccc(N3CCN(c4ccc(OC[C@@H]5CO[C@@](Cn6c[n+](C(C)OC(=O)N(C)c7ncccc7COC(=O)[C@@H](N)CCCNC)cn6)(c6ccc(F)cc6F)C5)cc4)CC3)cc2)c1=O (stereo partly shown) [ST0038] | Total impurity increment in 30 days | 1.06 |
| CC[C@@H]([C@H](C)O)n1ncn(-c2ccc(N3CCN(c4ccc(OC[C@@H]5CO[C@@](Cn6c[n+](C(C)OC(=O)N(C)c7ncccc7COC(=O)[C@@H](N)[C@@H](C)O)cn6)(c6ccc(F)cc6F)C5)cc4)CC3)cc2)c1=O (stereo partly shown) [ST0026] | Total impurity increment in 30 days | 0.46 |

Look up Total impurity increment in 30 days for this compound: CC[C@@H]([C@H](C)O)n1ncn(-c2ccc(N3CCN(c4ccc(OC[C@@H]5CO[C@@](Cn6c[n+](C(C)OC(=O)N(C)c7ncccc7COC(=O)[C@@H](N)Cc7ccc(O)cc7)cn6)(c6ccc(F)cc6F)C5)cc4)CC3)cc2)c1=O (stereo partly shown) [ST0027]
0.75

Look up Total impurity increment in 30 days for this compound: CC[C@@H]([C@H](C)O)n1ncn(-c2ccc(N3CCN(c4ccc(OC[C@@H]5CO[C@@](Cn6c[n+](C(C)OC(=O)N(C)c7ncccc7COC(=O)[C@@H](N)CCC(N)=O)cn6)(c6ccc(F)cc6F)C5)cc4)CC3)cc2)c1=O (stereo partly shown) [ST0022]
0.48

* * *

tested on: Aspergillus fumigatus AF293; assay: Lung Aspergillus fumigatus infection in immunosuppressed mice, intravenous administration; conditions: Aspergillus fumigatus, AF293, in Mus musculus, iv, 48 h, read-out: survival rate of mice, day 2, 20 mg/kg tail vein once daily for 5 days; day 2
Overview of reported responders at 20 mg/kg across a group of compounds:
Supply the numeric figure in %, leaving out any unit text.

Recorded responders at 20 mg/kg, per entry:
| compound | unit.string | responders at 20 mg/kg |
| --- | --- | --- |
| CC[C@@H]([C@H](C)O)n1ncn(-c2ccc(N3CCN(c4ccc(OC[C@@H]5CO[C@@](Cn6c[n+](C(C)OC(=O)N(C)c7ccccc7COC(=O)[C@@H](N)CCCN)cn6)(c6ccc(F)cc6F)C5)cc4)CC3)cc2)c1=O (stereo partly shown) [ST0008] | % | 100 |
| CC[C@@H]([C@H](C)O)n1ncn(-c2ccc(N3CCN(c4ccc(OC[C@@H]5CO[C@@](Cn6c[n+](C(C)OC(=O)N(C)c7ncccc7COC(=O)[C@@H](N)CCN)cn6)(c6ccc(F)cc6F)C5)cc4)CC3)cc2)c1=O (stereo partly shown) [ST0006] | % | 100 |
| CC[C@@H]([C@H](C)OP(=O)(O)O)n1ncn(-c2ccc(N3CCN(c4ccc(OC[C@@H]5CO[C@@](Cn6c[n+](C(C)OC(=O)N(C)c7ncccc7COC(=O)[C@@H](N)CCCN)cn6)(c6ccc(F)cc6F)C5)cc4)CC3)cc2)c1=O (stereo partly shown) [ST0009] | % | 100 |
| CC[C@@H]([C@H](C)O)n1ncn(-c2ccc(N3CCN(c4ccc(OC[C@@H]5CO[C@@](Cn6c[n+](C(C)OC(=O)N(C)c7ncccc7COC(=O)[C@@H](N)CCCN)cn6)(c6ccc(F)cc6F)C5)cc4)CC3)cc2)c1=O (stereo partly shown) [ST0003] | % | 100 |
| CC[C@@H]([C@H](C)O)n1ncn(-c2ccc(N3CCN(c4ccc(OC[C@@H]5CO[C@@](Cn6c[n+](C(C)OC(=O)N(C)c7ncccc7COC(=O)C[C@H](N)C(=O)O)cn6)(c6ccc(F)cc6F)C5)cc4)CC3)cc2)c1=O (stereo partly shown) [ST0004] | % | 90 |

Look up responders at 20 mg/kg for this compound: CC[C@@H]([C@H](C)O)n1ncn(-c2ccc(N3CCN(c4ccc(OC[C@@H]5CO[C@@](Cn6c[n+](C(C)OC(=O)N(C)c7ncccc7COC(=O)CN)cn6)(c6ccc(F)cc6F)C5)cc4)CC3)cc2)c1=O (stereo partly shown) [ST0002]
100

Look up responders at 20 mg/kg for this compound: CC[C@@H]([C@H](C)OC(=O)[C@@H](N)CO)n1ncn(-c2ccc(N3CCN(c4ccc(OC[C@@H]5CO[C@@](Cn6c[n+](C(C)OC(=O)N(C)c7ncccc7COC(=O)[C@@H](N)CCCN)cn6)(c6ccc(F)cc6F)C5)cc4)CC3)cc2)c1=O (stereo partly shown) [ST0010]
100

Look up responders at 20 mg/kg for this compound: CC[C@@H]([C@H](C)O)n1ncn(-c2ccc(N3CCN(c4ccc(OC[C@@H]5CO[C@@](Cn6c[n+](C(C)OC(=O)N(C)c7ncccc7COC(=O)[C@@H](N)CCCNC(N)=O)cn6)(c6ccc(F)cc6F)C5)cc4)CC3)cc2)c1=O (stereo partly shown) [ST0012]
100

Look up responders at 20 mg/kg for this compound: CC[C@@H]([C@H](C)O)n1ncn(-c2ccc(N3CCN(c4ccc(OC[C@@H]5CO[C@@](Cn6c[n+](C(C)OC(=O)N(C)c7ncccc7COC(=O)CCC(=O)O)cn6)(c6ccc(F)cc6F)C5)cc4)CC3)cc2)c1=O (stereo partly shown) [ST0005]
90

Look up responders at 20 mg/kg for this compound: CCC([C@H](C)OC(=O)C(O)C(O)COP(=O)(O)O)n1ncn(-c2ccc(N3CCN(c4ccc(OC[C@@H]5CO[C@@](Cn6cncn6)(c6ccc(F)cc6F)C5)cc4)CC3)cc2)c1=O (stereo partly shown) [ST0001]
100
